system: Escherichia coli TEM; test: MIC, standard agar-dilution assay (Table V); assay type: cell-based; settings: Escherichia coli
readout: MIC (µg/mL)
Numbers only; they are read as µg/mL.

Look over these answered cases.
molecule	test.result
CCC1OC(=O)CC(O)C(C)C(OC2OC(C)C(O)C(N(C)C)C2O)C(CC=O)CC(C)C(=O)C=CC(C)=CC1CSc1nnc(C)o1 (stereo not drawn)	32
CCC1OC(=O)CC(O)C(C)C(OC2OC(C)C(O)C(N(C)C)C2O)C(CC=O)CC(C)C(=O)C=CC(C)=CC1CN=[N+]=[N-] (stereo not drawn)	16

Field: next molecule
Sure, the documented MIC for CCC1OC(=O)CC(O)C(C)C(OC2OC(C)C(O)C(N(C)C)C2O)C(CC=O)CC(C)C(=O)C=CC(C)=CC1CSc1ccccc1 (stereo not drawn) is 8

====

system: Proteus rettgeri PR7; experiment: MIC, standard agar-dilution assay (Table VI); format: cell-based; settings: Providencia rettgeri; P. rettgeri PR7; agar dilution; read-out: MIC
readout: MIC (µg/mL)
Note: unit µg/mL is implicit; provide only the numeric part.

# count of solved cases: 4
compound	test.target	MIC, µg/mL
CCC1OC(=O)CC(O)C(C)C(OC2OC(C)C(O)C(N(C)C)C2O)C(CC=O)CC(C)C(=O)C=CC(C)=CC1CSc1nnc(C)s1 (stereo not drawn)	Proteus rettgeri PR7	64
CCC1OC(=O)CC(O)C(C)C(OC2OC(C)C(O)C(N(C)C)C2O)C(CC=O)CC(C)C(=O)C=CC(C)=CC1CSc1nnnn1C (stereo not drawn)	Proteus rettgeri PR7	64
CCC1OC(=O)CC(O)C(C)C(OC2OC(C)C(O)C(N(C)C)C2O)C(CC=O)CC(C)C(=O)C=CC(C)=CC1CN=[N+]=[N-] (stereo not drawn)	Proteus rettgeri PR7	32
CCC1OC(=O)CC(O)C(C)C(OC2OC(C)C(O)C(N(C)C)C2O)C(CC=O)CC(C)C(=O)C=CC(C)=CC1CF (stereo not drawn)	Proteus rettgeri PR7	32

Now examine the next entry.
For CCC1OC(=O)CC(O)C(C)C(OC2OC(C)C(O)C(N(C)C)C2O)C(CC=O)CC(C)C(=O)C=CC(C)=CC1CSc1ccccc1 (stereo not drawn) the compound record lists MIC as 16

====

tested on: Pasteurella hemolytica 23C; experiment: MIC, broth-dilution microtiter test (Table VII); assay type: cell-based; details: Pasteurella, P. hemolytica 23C, read-out: MIC
Listing: MIC of selected molecules
For clarity, give the value followed by its unit.

Recorded MIC (molecule CCC1OC(=O)CC(O)C(C)C(OC2OC(C)C(O)C(N(C)C)C2O)C(CC=O)CC(C)C(=O)C=CC(C)=CC1CF (centres unmarked) ): 6.25 µg/mL

Lab note: CCC1OC(=O)CC(O)C(C)C(OC2OC(C)C(O)C(N(C)C)C2O)C(CC=O)CC(C)C(=O)C=CC(C)=CC1CN (centres unmarked) gave MIC of 12.5 µg/mL

====

test system: Escherichia coli EC14; test: MIC, standard agar-dilution assay (Table V); type: cell-based; settings: Escherichia coli; E. coli EC14; agar dilution; read-out: MIC
readout: MIC

A selection of reference data follows.
compound	readout	test.result
CCC1OC(=O)CC(O)C(C)C(OC2OC(C)C(O)C(N(C)C)C2O)C(CC=O)CC(C)C(=O)C=CC(C)(OCCc2ccccc2)C2CC12 (stereo not drawn)	MIC	> 128 µg/mL
CCC1OC(=O)CC(O)C(C)C(OC2OC(C)C(O)C(N(C)C)C2O)C(CC=O)CC(C)C(=O)C=CC(C)=CC1CSc1nnc(C)o1 (stereo not drawn)	MIC	> 128 µg/mL

# compound CCC1OC(=O)CC(O)C(C)C(OC2OC(C)C(O)C(N(C)C)C2O)C(CC=O)CC(C)C(=O)C=CC(C)=CC1CSC(C)=O (stereo not drawn) ; its MIC = 64 µg/mL

get_value(item= CCC1OC(=O)CC(O)C(C)C(OC2OC(C)C(O)C(N(C)C)C2OC(C)=O)C(CC=O)CC(C)C(=O)C=CC(C)=CC1C[n+]1ccccc1 (stereo not drawn) , readout=MIC) returns > 128 µg/mL

// sample C=C1C=CC(=O)C(C)CC(CC=O)C(OC2OC(C)C(O)C(N(C)C)C2O)C(C)C(O)CC(=O)OC(CC)C2CC12 (stereo not drawn) , its MIC was > 128 µg/mL

Note to self: MIC recorded for CCC1OC(=O)CC(O)C(C)C(OC2OC(C)C(O)C(N(C)C)C2O)C(CC=O)CC(C)C(=O)C=CC(C)=CC1CF (stereo not drawn) was 32 µg/mL

====

system: Serratia marcescens X99; test: MIC, standard agar-dilution assay (Table VI); format: cell-based; conditions: S. marcescens X99, agar dilution, read-out: MIC
readout: MIC (mg/L)
Your answer is read as mg/L, so omit the unit and give the number.

compound	test.result
CCC1OC(=O)CC(O)C(C)C(OC2OC(C)C(O)C(N(C)C)C2O)C(CC=O)CC(C)C(=O)C=CC(C)=CC1CF (stereo not shown) [Compound 15, 23-Deoxy-23-fluoro-OMT]	64

Next:
Briefly, MIC measured for CCC1OC(=O)CC(O)C(C)C(OC2OC(C)C(O)C(N(C)C)C2O)C(CC=O)CC(C)C(=O)C=CC(C)=CC1CSc1ccccc1 (stereo not shown) [Compound 2, 23-Deoxy-23-(phenyl)thio-OMT] : 64

====

tested on: Staphylococcus aureus S13E; experiment: MIC, standard agar-dilution assay (Table V); type: cell-based; conditions: Staphylococcus aureus, S13E
Mark satisfied only when MIC stays strictly below 0.1 µg/mL. Values equal to the cut-off are not satisfied.

Answered examples (4):
compound	assigned.category
CCC1OC(=O)CC(O)C(C)C(OC2OC(C)C(O)C(N(C)C)C2O)C(CC=O)CC(C)C(=O)C=CC(C)=CC1CSc1ccccc1 (centres unmarked) [Compound 2, 23-Deoxy-23-(phenyl)thio-OMT]	satisfied
CCC1OC(=O)CC(O)C(C)C(OC2OC(C)C(O)C(N(C)C)C2O)C(CC=O)CC(C)C(=O)C=CC(C)=CC1CSC(C)=O (centres unmarked) [Compound 7, 23-Deoxy-23-(acetyl)thio-OMT]	not satisfied
CCC1OC(=O)CC(O)C(C)C(OC2OC(C)C(O)C(N(C)C)C2O)C(CC=O)CC(C)C(=O)C=CC(C)=CC1CSc1n[nH]c(=O)c(=O)n1C (centres unmarked) [Compound 6]	not satisfied
CCC1OC(=O)CC(O)C(C)C(OC2OC(C)C(O)C(N(C)C)C2O)C(CC=O)CC(C)C(=O)C=CC(C)(OC)C2CC12 (centres unmarked) [Compound 17]	not satisfied

Now examine the next entry.
Find out if reported MIC for CCC1OC(=O)CC(O)C(C)C(OC2OC(C)C(O)C(N(C)C)C2O)C(CC=O)CC(C)C(=O)C=CC(C)=CC1CNC(=O)Cc1ccccc1 (centres unmarked) [Compound 10, 23-Deoxy-23-N-(phenylacetyl)amino-OMT] is less than 0.1 µg/mL
not satisfied

====

This section presents compounds with their documented MIC values.
system: Enterobacter aerogenes C32; test: MIC, standard agar-dilution assay (Table VI); type: cell-based; conditions: Klebsiella aerogenes, C32
Report only the number, with the unit µg/mL understood.

compound	readout	measurement.unit	test.result
CCC1OC(=O)CC(O)C(C)C(OC2OC(C)C(O)C(N(C)C)C2O)C(CC=O)CC(C)C(=O)C=CC(C)=CC1CSc1ccccc1 (stereo not shown) [Compound 2, 23-Deoxy-23-(phenyl)thio-OMT]	MIC	µg/mL	32

Turning to the following compound.
Looking up CCC1OC(=O)CC(O)C(C)C(OC2OC(C)C(O)C(N(C)C)C2O)C(CC=O)CC(C)C(=O)C=CC(C)=CC1CN=[N+]=[N-] (stereo not shown) [Compound 8, 23-Deoxy-23-azido-OMT] , I found its MIC recorded as 64

====

test system: Mycoplasma synoviae; experiment: MIC, broth-dilution microtiter test (Table VII); type: cell-based; settings: Mycoplasmopsis synoviae; M. synoviae; broth-dilution microtiter; read-out: MIC
readout: MIC (µg/mL)
Express your answer in µg/mL, writing the number without its unit.

compound	test.result
CCC1OC(=O)CC(O)C(C)C(OC2OC(C)C(O)C(N(C)C)C2O)C(CC=O)CC(C)C(=O)C=CC(C)=CC1CSc1nnc(C)o1 (stereo not drawn) [Compound 4]	0.78
CCC1OC(=O)CC(O)C(C)C(OC2OC(C)C(O)C(N(C)C)C2O)C(CC=O)CC(C)C(=O)C=CC(C)=CC1CSc1nnnn1C (stereo not drawn) [Compound 5]	0.78
CCC1OC(=O)CC(O)C(C)C(OC2OC(C)C(O)C(N(C)C)C2O)C(CC=O)CC(C)C(=O)C=CC(C)=CC1CSc1nnc(C)s1 (stereo not drawn) [Compound 3]	0.39
CCC1OC(=O)CC(O)C(C)C(OC2OC(C)C(O)C(N(C)C)C2O)C(CC=O)CC(C)C(=O)C=CC(C)=CC1CSc1n[nH]c(=O)c(=O)n1C (stereo not drawn) [Compound 6]	3.12

Then this compound:
response.value for CCC1OC(=O)CC(O)C(C)C(OC2OC(C)C(O)C(N(C)C)C2O)C(CC=O)CC(C)C(=O)C=CC(C)=CC1CSc1ccccc1 (stereo not drawn) [Compound 2, 23-Deoxy-23-(phenyl)thio-OMT] (field: MIC) = 0.39

Sourced from patent US4459290A
